# melting point annotations

Example results:
INSERT INTO results (compound, observed_property, result) VALUES
  ('Cc1cc(Nc2ncnc3ccc(-c4cccs4)cc23)ccc1OCc1ccccn1', 'melting point', '205 to 206 °C'),
  ('CCNC(=O)ON=C1CCOc2ccc(OC)cc21', 'melting point', '97 to 98 °C'),
  ('C=CC(=N)NS(N)(=O)=O', 'melting point', '72 to 75 °C'),
  ('N#CCCNC(=O)c1cccc(-c2ccnc3cc(Cc4cccc(C(F)(F)F)c4)nn23)c1', 'melting point', '153 to 154 °C'),
  ('Cc1cccc(COc2cccc(OCc3ccc4cc(F)ccc4n3)c2)c1C(=O)O', 'melting point', '153 to 154 °C');

(Q) Give the measured melting point for "COC1(c2cccc(S(=O)(=O)c3ccc4c(ccc(=O)n4C)c3)c2)CCOCC1"
(A) 204 to 207 °C

(Q) Indicate its recorded melting point; the compound in question is CNCC1Cc2cc(OC)cc(-c3cc(OC)ccc3OC)c2O1 (stereo not given)
(A) 144 to 145 °C

(Q) Supply recorded melting point for "O=C1c2c(c(=O)n3nc(-c4ccccc4)cc3n2Cc2ccccc2)CN1c1ccccc1" here.
(A) 271 to 272 °C

(Q) Specify melting point for "CCOC(=O)c1cn(CC)c2cc(-c3csc(CN(CC)C(C)=O)n3)c(F)cc2c1=O" and stop.
(A) 160 to 161 °C

(Q) Look up and state reported melting point for "CCCCCCCCCCCCOS(=O)(=O)NC(=O)Nc1c(C(C)C)cccc1C(C)C"
(A) 112 to 115 °C

###

melting point values, listed per item

(Q) Tell me melting point reported for "C[Si](C)(C)c1ccc(O)c(C(=O)C=C(O)c2ccc(C(=O)O)cc2)c1"
(A) 207 to 209 °C

(Q) For the molecule "FC(F)Sc1nnc(-c2ccccn2)s1" , report melting point.
(A) 90 to 92 °C

(Q) Quickly give me recorded melting point for "COc1cc(Cc2cnc(N)nc2N)c2c(c1OC)OCC=C2"
(A) 232 to 234 °C

(Q) Please report the measured melting point for Clc1ccc2c(c1)CCC(c1ccccc1)O2 (stereo unspecified)
(A) 71 to 72 °C

(Q) Consider the molecule CN1C(c2ccc(N3CCCCC3)cc2)=NC(C(F)(F)F)(C(F)(F)F)C1NC(=O)c1ccc(F)cc1 (stereo unspecified) and give its recorded melting point.
(A) 123 to 124 °C

###

Observed property: melting point

INSERT INTO assay_data (compound, observed_property, result) VALUES
  ('CCCOc1ccccc1-c1nc2c(C=CCc3ccccc3)cccc2c(=O)[nH]1', 'melting point', '123 to 126 °C');

(Q) Tell me melting point reported for "Cn1c(C(=O)N[C@H]2CCCC[C@H]2C(=O)N[C@H](C#N)CO)cc2ccccc21"
(A) 78.4 to 79 °C

(Q) Identify melting point associated with the compound "O=C(O)c1ccc2c(c1)CCN2Cc1cccc([N+](=O)[O-])c1"
(A) 259 to 262 °C

(Q) Read off the recorded melting point for "Cc1cc(-c2cnn3c(C(F)(F)F)cc(-c4ccc(Br)cc4)nc23)ccn1"
(A) 226 °C

###

Non-standard residues stand in square brackets, D forms with d. Residues, ends and D or L forms follow the SMILES beside them. *: point of attachment. 1Nal = N[C@@H](Cc1cccc2ccccc12)C(=O)O; Cbz = O=C(OCc1ccccc1)*
Reported melting point values for a set of compounds

Below: 5 compounds and their reported melting point.
INSERT INTO measurements (compound, result) VALUES
  ('CCC(=O)Oc1cc(OC)cc(OC)c1C(=O)C=Cc1ccc(OC)cc1', '117 to 118 °C'),
  ('CC(C)(C)c1ccc(C2CCSC(c3c(F)cccc3F)=N2)cc1 (stereo not given)', '91 to 91.5 °C'),
  ('Cc1cc(OCc2nc3ccccc3s2)ccc1N', '110 to 111 °C'),
  ('CC(C)C[C@@H](C=O)NC(=O)[C@H](Cc1c[nH]cn1)NC(=O)[C@H](Cc1cccc2ccccc12)NC(=O)OCc1ccccc1 (Cbz-[1Nal]-His-Leu-aldehyde)', '106 to 108 °C'),
  ('O=C(O)CCCCCCCSc1ccc(Cl)cc1', '92 to 93 °C');

(Q) Give recorded melting point. COc1ccc(CC2CCC3=C(C2)CC(C)C(=O)N3)cc1 (stereo not given)
(A) 182 to 184 °C

The measured values listed here are drawn from a melting point compilation (Tetko et al.; mined from patent text by program, amines drawn as free bases though some values may be those of a salt).
